System: R275C/beta1
MEASUREMENT_PROTOCOL: modulators of BK channel variants, profiling panel, selectivity assay, cell-based, U2OS BacMam, thallium flux, beta subunits (AID 1259406);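 further: initial slope of Thallos dye fluorescence rise after thallium is added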
EXPERIMENTAL_PARAMETERS: at 30 µM
Numbered stars: 1 amine (or outer) side, 2 acyl side, 3 side chain; on linkers, the order of the positions; unused ones are H or OH. Bridge positions count the residues as written; N and C are the ends. Square brackets hold non-standard residues; d marks the D form. Peptide text beside a SMILES is read from it. I, II: the chains in the order shown. Actinocin(9to1) = Cc1c2oc3c(C)ccc(C(=O)[*:1])c3nc-2c(C(=O)[*:2])c(N)c1=O; NMeV = CN[CH](C(=O)O)C(C)C; Sar = CNCC(=O)O
Class definitions on log fold change Tl+ flux: low (below -0.02), middle (-0.02 to below 0.02), high (0.02 or more)

Request: Into which bin does this compound go? O=C(Nc1ccc(Cl)cc1)c1cnccc1C(F)(F)F
Result: high

Request: Into which bin does this compound go? O=C(O)CC1(CC(=O)Nc2cccc3nsnc23)CCCCC1
Result: middle

Request: Into which bin does this compound go? Cc1c2oc3c(C)ccc(C(=O)NC4C(=O)NC(C(C)C)C(=O)N5CCCC5C(=O)N(C)CC(=O)N(C)C(C(C)C)C(=O)OC4C)c3nc-2c(C(=O)NC2C(=O)NC(C(C)C)C(=O)N3CCCC3C(=O)N(C)CC(=O)N(C)C(C(C)C)C(=O)OC2C)c(N)c1=O (stereo not given) (I: TVP[Sar][NMeV] / II: TVP[Sar][NMeV]; ester I:1-I:C, II:1-II:C; linker I:N-II:N via Actinocin(9to1); configuration not given here)
Result: high

Request: Into which bin does this compound go? CC(=O)C1=C(C)Nc2ccccc2S1
Result: low

Request: Into which bin does this compound go? CC(N)(Cc1ccc(O)c(O)c1)C(=O)O (stereo not given)
Result: low

Request: Into which bin does this compound go? COC(=O)c1ccc(S(=O)(=O)NNc2ncnc3cc(C(C)(C)C)sc23)n1C
Result: low

Request: Into which bin does this compound go? Cc1nn(Cc2nnn(CC(=O)NN=Cc3ccc(Cl)cc3)n2)c(C)c1Br
Result: low

Request: Into which bin does this compound go? CC(=O)c1sc(SCc2ccc(Cl)cc2)c2c1CC(C)(C)CC2=O
Result: low

Request: Into which bin does this compound go? O=C(O)C(Cc1ccccc1[N+](=O)[O-])=NNc1ccccc1
Result: high

Request: Into which bin does this compound go? CCCCC#Cc1ccc(C(=O)NNC(=O)Nc2ccccc2)o1
Result: middle

Request: Into which bin does this compound go? CCOC(=O)c1sc(SC)nc1N
Result: middle

Request: Into which bin does this compound go? CC1c2cccc(O)c2C(O)=C2C(=O)C3(O)C(O)=C(C(N)=O)C(=O)C(N(C)C)C3C(O)C21 (stereo not given)
Result: low

Request: Into which bin does this compound go? Cc1ccc(I)cc1[N+](=O)[O-]
Result: middle

Request: Into which bin does this compound go? COC(=O)c1cc(S(=O)(=O)N(Cc2ccc(OC)cc2)Cc2cccn2C)oc1C
Result: low

Request: Into which bin does this compound go? Clc1cc(Cl)c(NN=Cc2cc(C#Cc3ccccc3)cs2)c(Cl)c1
Result: middle

Request: Into which bin does this compound go? CC1(C)CC(=O)C=C(NCCCCCCCCNC2=CC(=O)CC(C)(C)C2)C1
Result: low

Request: Into which bin does this compound go? C[C@H]1[C@@H](OC(=O)CCC(=O)O)O[C@@H]2OC3(C)CC[C@H]4[C@H](C)CC[C@@H]1[C@@]24OO3
Result: high

Request: Into which bin does this compound go? Clc1ccc(Sc2cn[nH]c2-c2ccc3c(c2)OCCO3)cc1
Result: middle

Request: Into which bin does this compound go? CCOC(=O)CCC(=O)OC1C(OC2C(C)C(OC3CC(C)(OC)C(O)C(C)O3)C(C)C(=O)OC(CC)C(C)(O)C(O)C(C)C(=O)C(C)CC2(C)O)OC(C)CC1N(C)C (stereo not given)
Result: middle

Request: Into which bin does this compound go? O=C(NCCSCc1ccco1)c1cncc(Br)c1
Result: high

Request: Into which bin does this compound go? N#Cc1cccc(CSc2ncnc(N)n2)c1
Result: low

Request: Into which bin does this compound go? COc1cc(C)c(/C=C/C(C)=C/C=C/C(C)=C/C(=O)O)c(C)c1C
Result: high

Request: Into which bin does this compound go? Cc1ccc(-c2nc(N=CNOC(=O)c3ccc([N+](=O)[O-])cc3)sc2C)cc1Cl
Result: high

Request: Into which bin does this compound go? O=C(CC1SC(=NC2CC3C=CC2C3)NC1=O)Nc1ccccc1Cl (stereo not given)
Result: high

Request: Into which bin does this compound go? COc1cc(N)c(Cl)cc1C(=O)N[C@@H]1CCN(CCCOc2ccc(F)cc2)C[C@@H]1OC
Result: low

Request: Into which bin does this compound go? CC12CCC(=O)C=C1CCC1C2CCC2(C)C1CCC2(O)C(=O)CO (stereo not given)
Result: low

Request: Into which bin does this compound go? CC1CNc2c(cccc2S(=O)(=O)N[C@@H](CCCN=C(N)N)C(=O)N2CC[C@@H](C)C[C@@H]2C(=O)O)C1 (stereo not given in full)
Result: middle

Request: Into which bin does this compound go? O=C(O)C[C@H](O)C[C@H](O)/C=C/c1c(C2CC2)nc2ccccc2c1-c1ccc(F)cc1
Result: high

Request: Into which bin does this compound go? CC(C)(C)NC(=O)NCCO
Result: middle

Request: Into which bin does this compound go? CCC(=O)NS(=O)(=O)c1ccc(-c2c(-c3ccccc3)noc2C)cc1
Result: middle

Request: Into which bin does this compound go? CNCC[C@H](Oc1cccc2ccccc12)c1cccs1
Result: high

Request: Into which bin does this compound go? Cc1cc2nccc(-c3cccnc3)n2n1
Result: middle

Request: Into which bin does this compound go? CCOC(=O)c1nn(-c2ccc(C(C)(C)C)cc2)c(=O)c(C#N)c1C
Result: low

Request: Into which bin does this compound go? COCCCNC1=C(C#N)C(=O)NC(c2cccs2)S1 (stereo not given)
Result: high

Request: Into which bin does this compound go? Clc1cc(Cl)cc(Nc2ncnc(-n3cccc3)n2)c1
Result: middle

Request: Into which bin does this compound go? O=C1N=C(O)CN1N=Cc1ccc(-c2ccc([N+](=O)[O-])cc2)o1
Result: high

Request: Into which bin does this compound go? O=C(O)COCCN1CCN([C@H](c2ccccc2)c2ccc(Cl)cc2)CC1
Result: high

Request: Into which bin does this compound go? COC(=O)c1cc(-c2nc(-c3ccc(Cl)cc3Cl)cs2)c(SC)s1
Result: low

Request: Into which bin does this compound go? O=c1[nH]c(=O)n(C2CCCO2)cc1F (stereo not given)
Result: low

Request: Into which bin does this compound go? COCCCCC(=NOCCN)c1ccc(C(F)(F)F)cc1
Result: high
